Recorded EC50 (FLIPR) values for a group of binders are listed next.
SYSTEM NAME: mouse NMUR2 (mouse, UniProt Q8BZ39 1-395)
Sequence (Q8BZ39 whole entry): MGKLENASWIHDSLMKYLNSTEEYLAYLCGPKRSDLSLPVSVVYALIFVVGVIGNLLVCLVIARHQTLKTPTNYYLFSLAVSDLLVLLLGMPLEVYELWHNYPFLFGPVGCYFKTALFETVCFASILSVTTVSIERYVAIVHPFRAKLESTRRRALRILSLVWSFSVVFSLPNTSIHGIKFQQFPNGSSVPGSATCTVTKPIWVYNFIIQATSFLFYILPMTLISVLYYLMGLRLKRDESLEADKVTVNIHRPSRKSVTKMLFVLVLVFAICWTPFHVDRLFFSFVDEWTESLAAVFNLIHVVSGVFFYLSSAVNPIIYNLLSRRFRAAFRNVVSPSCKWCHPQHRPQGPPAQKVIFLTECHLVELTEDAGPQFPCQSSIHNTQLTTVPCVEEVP
ASSAY NAME: cell-based or functional assay
Starred links: 1 amine or outer side, 2 acyl side, 3 side chain; linkers in the order of their positions; H or OH if unused. Non-standard residues stand in square brackets, D forms with d. No end group written: not given here. *: point of attachment. Ttds = 1-amino-4,7,10-trioxa-13-tridecanamine succinimic acid spacer, O=C(CCC(=O)[*:2])NCCCOCCOCCOCCCN[*:1]; (PEG)2 40 kDa = branched PEG of 40 kDa linked via the Cys side-chain thiol (code C2 = Cys(PEG)2 40 kDa); Cholesteroyl = cholesterol linked to a cysteine residue via the side-chain thiol; Succinimide(1-Et,3-yl) = CCN1C(=O)CC(*)C1=O
ASSAY METRIC: EC50 (FLIPR) (nM)

Ac-C(Cholesteroyl)GYFLFRPRN-NH2 [NMU11]	1000
Ac-C(Succinimide(1-Et,3-yl))ASQSRGYFLFRPRN-NH2 (SMILES CCN1C(=O)CC(SC[C@H](NC(C)=O)C(=O)N[C@@H](C)C(=O)N[C@@H](CO)C(=O)N[C@@H](CCC(N)=O)C(=O)N[C@@H](CO)C(=O)N[C@@H](CCCNC(=N)N)C(=O)NCC(=O)N[C@@H](Cc2ccc(O)cc2)C(=O)N[C@@H](Cc2ccccc2)C(=O)N[C@@H](CC(C)C)C(=O)N[C@@H](Cc2ccccc2)C(=O)N[C@@H](CCCNC(=N)N)C(=O)N2CCC[C@H]2C(=O)N[C@@H](CCCNC(=N)N)C(=O)N[C@@H](CC(N)=O)C(N)=O)C1=O) [NMU17]	0.5
Ac-C((PEG)2 40 kDa)FQSPFASQSRGYFLFRPRN-NH2 [NMU20]	14.8
GYFLFRPRN-NH2 [NMU3]	1
Ac-FRVDEEFQSPFASQSRPYFLFRPRN-NH2 [NMU5]	1
Ac-C(Cholesteroyl)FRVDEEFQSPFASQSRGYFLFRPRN-NH2 [NMU10]	1000
Ac-C((PEG)2 40 kDa)[Ttds]FLFRPRN-NH2 [NMU16]	138
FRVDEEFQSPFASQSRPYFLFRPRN-NH2 [NMU4]	1.2
Ac-C(Succinimide(1-Et,3-yl))C(Succinimide(1-Et,3-yl))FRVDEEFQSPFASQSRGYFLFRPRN-NH2 [NMU22]	6.9
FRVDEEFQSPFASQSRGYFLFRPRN-NH2 (not fully specified (N-terminus)) [NMU1]	31
